Test: Plasma pharmacokinetics of DMT and DMT N-oxide after IN or SC DMT (LC-QQQ-MS, non-compartmental analysis)
Assay type: in vivo, male Sprague-Dawley rats
Conditions: male, Sprague-Dawley, rat, plasma, sc, 1 mg/kg, plasma DMT, 1 mg/kg SC, mean ± SEM, n = 5 rats; read-out: t1/2
METRIC_NAME: half-life (min)
Unit min implied. Number only.

Requested read-out: half-life. Entry: CN(C)CCc1c[nH]c2ccccc12 [DMT, N,N-dimethyltryptamine]
45.5

* * *

Test: Plasma pharmacokinetics of DMT and DMT N-oxide after IN or SC DMT (LC-QQQ-MS, non-compartmental analysis)
Type: in vivo, male Sprague-Dawley rats
Details: male, Sprague-Dawley, rat, inhaled or intranasal; plasma DMT, 10 mg/kg IN, mean ± SEM, n = 5 rats
METRIC_NAME: Tmax
Answers without a unit are incomplete; give the number and then its unit.

Requested read-out: Tmax. Entry: CN(C)CCc1c[nH]c2ccccc12 [DMT, N,N-dimethyltryptamine]
7 min
